- Target entity: T1, recombinant human Tie2 Ig3-FNIII(1-3) domains (human, UniProt Q02763 349-738)
- T1 construct: also called hTie2-Ig3-FNIII(1-3)
- T1 sequence (Q02763 349-738 limits assumed): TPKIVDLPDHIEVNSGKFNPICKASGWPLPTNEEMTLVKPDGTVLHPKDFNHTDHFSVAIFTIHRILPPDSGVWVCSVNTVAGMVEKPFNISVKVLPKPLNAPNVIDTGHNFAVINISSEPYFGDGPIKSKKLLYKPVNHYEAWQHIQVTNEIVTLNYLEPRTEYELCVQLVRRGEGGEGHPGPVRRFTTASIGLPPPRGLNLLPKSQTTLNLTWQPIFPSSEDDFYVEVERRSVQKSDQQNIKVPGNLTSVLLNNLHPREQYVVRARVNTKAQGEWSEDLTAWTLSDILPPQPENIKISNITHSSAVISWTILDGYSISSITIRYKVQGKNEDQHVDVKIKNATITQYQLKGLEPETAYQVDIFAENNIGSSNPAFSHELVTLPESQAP
- Procedure details: BLI (Octet), antibody immobilised on AR2G sensor, recombinant hTie2 as analyte, 1:1 global fit
Readout type: Kd

Binder	Readout type	Obs value
humanized anti-Tie2 antibody 3H7H11G4 (antibody, V domains shown) VH: QVQLVQSGAEVKKPGASVKVSCKASGYTFTSYWMNWVRQAPGQGLEWMGMIHPSDSETRLNQKFMDRVTMTRDTSTSTVYMELSSLRSEDTAVYYCARGLYGNSWGQGTLVTVSS VL: DIQMTQSPSSLSASVGDRVTITCRASQDIGISLNWYQQKPGKAPKRLIYATSSLDSGVPSRFSGSGSGTEFTLTISSLQPEDFATYYCLQYASSPYTFGQGTKVEIK	Kd	7.47 nM
humanized anti-Tie2 antibody 3H7H21G4 (antibody, V domains shown) VH: QVQLVQSGAEVKKPGASVKVSCKASGYTFTSYWMNWVRQRPGQGLEWIGMIHPSDSETRLNQKFMDRVTMTRDTSTSTVYMELSSLRSEDTAVYYCARGLYGNSWGQGTLVTVSS VL: DIQMTQSPSSLSASVGDRVTITCRASQDIGISLNWYQQKPGKAPKRLIYATSSLDSGVPSRFSGSGSGTEFTLTISSLQPEDFATYYCLQYASSPYTFGQGTKVEIK	Kd	6.59 nM
humanized anti-Tie2 antibody 3H7H22G4 (antibody, V domains shown) VH: QVQLVQSGAEVKKPGASVKVSCKASGYTFTSYWMNWVRQRPGQGLEWIGMIHPSDSETRLNQKFMDRVTMTRDTSTSTVYMELSSLRSEDTAVYYCARGLYGNSWGQGTLVTVSS VL: DIQMTQSPSSLSASVGDRVTITCRASQDIGISLNWLQQEPGKAPKRLIYATSSLDSGVPKRFSGSGSGTEFTLTISSLQPEDFATYYCLQYASSPYTFGQGTKVEIK	Kd	39.7 nM
